The origin of these recorded values is the supplement of paper PMC10899765.

- System: MCF10A
- test-name: 5+ nucleoli phenotype percent effect (relative to siNT 0% and siKIF11 100%); higher = more cells with five or more nucleoli
- experimental-parameters: 20 nM; 72 h
5+ nucleoli phenotype percent effect for assorted sequences

polymer-sequence | 5+ nucleoli phenotype percent effect [%]
CUCUCUGGCCGUCUACCUUCCA [hsa-miR-3191-5p] | -62.4
AGAGGUUAUCCGUGUUAUGUUC [hsa-miR-655-5p] | -32.8
GAAAGCGCUUCUCUUUAGAGG [hsa-miR-518f-3p] | -8.13
CAUGACGUCACAGAGGCUUCGC [hsa-miR-4757-3p] | 36.1
UGGUCUGUCUCUGCCCUGGCAC [hsa-miR-6753-3p] | -4.31
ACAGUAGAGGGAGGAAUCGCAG [hsa-miR-936] | 14.1
CUGCAAAGGGAAGCCCUUUC [hsa-miR-518a-5p] | -45.8
AUAUGUAUAUGUGACUGCUACU [hsa-miR-3924] | -20.9
GACUAUAGAACUUUCCCCCUCA [hsa-miR-625-3p] | 19.1
UCCACUCUCCUGGCCCCCAG [hsa-miR-6777-3p] | 14.3
CUACCCCCCAUCCCCCUGUAG [hsa-miR-6798-3p] | -13.9
CUGGGGGACGCGUGAGCGCGAGC [hsa-miR-4665-5p] | 9.32
UGCUUCCUUUCUCAGCUG [hsa-miR-7162-5p] | -13.8
CGGGGCCAUGGAGCAGCCUGUGU [hsa-miR-6762-5p] | 28.2
GCCCUGAACGAGGGGUCUGGAG [hsa-miR-345-3p] | 29.8
UGAGGCGGGGGGGCGAGC [hsa-miR-6087] | -13.4
CAGGGCAGGAAGAAGUGGACAA [hsa-miR-4436b-3p] | -7.65
UGCUUCCUUUCAGAGGGU [hsa-miR-516b-3p] | -29.9
AGAGCUGGCUGAAGGGCAG [hsa-miR-4487] | 16.5
UGUCGUGGGGCUUGCUGGCUUG [hsa-miR-4440] | -27.6
CCAGACAGAAUUCUAUGCACUUUC [hsa-miR-1324] | 49.8
AUAUACAGGGGGAGACUCUCAU [hsa-miR-1185-2-3p] | -11.3
CCAGUUACCGCUUCCGCUACCGC [hsa-miR-935] | -23.4
GAAUAUGGGUAUAUUAGUUUGG [hsa-miR-5583-3p] | 43.7
CCAGAGAUGGUUGCCUUCCUAU [hsa-miR-4756-3p] | 4.75
ACAGAGGACAGUGGAGUGUGAGC [hsa-miR-6847-5p] | -1.34
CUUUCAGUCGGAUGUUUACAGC [hsa-miR-30e-3p] | 14.5
UGGGGGUGGUCUCUAGCCAAGG [hsa-miR-6842-5p] | -11.8
AAGUAGUUGGUUUGUAUGAGAUGGUU [hsa-miR-1244] | -0.297
UUUGGCAAUGGUAGAACUCACACU [hsa-miR-182-5p] | 13.1
UGCGGGGCUAGGGCUAACAGCA [hsa-miR-744-5p] | -35.1
UGCCCUAAAUGCCCCUUCUGGC [hsa-miR-18b-3p] | -9.28
GCGGUGAUCCCGAUGGUGUGAGC [hsa-miR-598-5p] | 32.8
AGAUAUUUUGAGUGUUUGGAAUUG [hsa-miR-3145-3p] | -8.4
AUCGUGCAUCCCUUUAGAGUGU [hsa-miR-517a-3p] | -11.8
GCUUCUGUAGUGUAGUC [hsa-miR-3182] | 35.6
CUGGCCUCUUCUUUCUCCUAG [hsa-miR-6878-3p] | 96
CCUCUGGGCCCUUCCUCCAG [hsa-miR-326] | -35.6
CAAAGGCCACAUUCUCCUGUGCAC [hsa-miR-6768-3p] | -27.1
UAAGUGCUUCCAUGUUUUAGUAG [hsa-miR-302b-3p] | 33.7
GGGUCCCGGGGAGGGGGG [hsa-miR-4281] | 25.6
GGGGCUGGGCGCGCGCC [hsa-miR-4492] | -0.324
CAGUGAUUUGAGGAUUAUUGC [hsa-miR-8062] | -26.5
CAUGGUUCUGUCAAGCACCGCG [hsa-miR-218-2-3p] | 7.58
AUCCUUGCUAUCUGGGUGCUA [hsa-miR-502-5p] | -11.6
UCCAGGCAGGAGCCGGACUGGA [hsa-miR-4673] | 14.9
CCAGGCUCUGCAGUGGGA [hsa-miR-3155b] | 29.5
UGUGUCCCAUUAUUGGUGAUU [hsa-miR-3657] | -31.6
